# MEASURED_ON: human TRPM8
# Construct: Receptor Activity TRPM8; Receptor Activity TRPM8; other: test compound at 0.001%; relative to WS5 control (30 microMolar); HEK 293 cells; other: test compound at 0.004%; other: test compound at 5.2E−5%; relative to WS5 control
# EXPERIMENT: TRPM8 Protocol-FLIPR Assay (intracellular Ca2+)
# Assay type: cell-based
# EXPERIMENTAL_PARAMETERS: 3 min
MEASURED_PARAMETER: EC50 (µM)

I: CC(C)[C@@H]1CC[C@@H](C)C[C@H]1C(=O)NCC(NC(=O)[C@@H](C)N)c1ccccc1 (single isomer, unassigned) [Compound 28 fraction 1]
II: CC(C)[C@@H]1CC[C@@H](C)C[C@H]1C(=O)NCC(NC(=O)[C@@H](C)N)c1ccccc1 (single isomer, unassigned) [Compound 28 fraction 2]
Request: Lowest EC50? choose I or II # answer = label of selected item
Result: I
(I: 0.00148 µM, II: 0.0555 µM)

---

# MEASURED_ON: human TRPM8
# Construct: Receptor Activity TRPM8; Receptor Activity TRPM8; other: test compound at 0.001%; relative to WS5 control (30 microMolar); HEK 293 cells; other: test compound at 0.004%; other: test compound at 5.2E−5%; relative to WS5 control
# EXPERIMENT: TRPM8 Protocol-FLIPR Assay (intracellular Ca2+)
# Type: cell-based
# EXPERIMENTAL_PARAMETERS: 5 min
MEASURED_PARAMETER: EC50 (nM)
Numeric answer only, unit nM assumed.

Request: Fill in EC50 for record CC(C)[C@@H]1CC[C@@H](C)C[C@H]1C(=O)NCC(NC(=O)[C@@H](C)N)c1ccccc1 (single isomer, unassigned)
Result: 45.7

---

# MEASURED_ON: human TRPM8
# Construct: Receptor Activity TRPM8; Receptor Activity TRPM8; other: test compound at 0.001%; relative to WS5 control (30 microMolar); HEK 293 cells; other: test compound at 0.004%; other: test compound at 5.2E−5%; relative to WS5 control
# EXPERIMENT: TRPM8 Protocol-FLIPR Assay (intracellular Ca2+)
# Type: cell-based
# EXPERIMENTAL_PARAMETERS: 10 min
MEASURED_PARAMETER: EC50 (µM)
All answers are understood in µM, so give the number only.

Request: Recall the reported EC50 of CC(C)[C@@H]1CC[C@@H](C)C[C@H]1C(=O)NCC(NC(=O)[C@@H](C)N)c1ccccc1 (single isomer, unassigned) on human TRPM8 and write it down.
Result: 0.0374
